- target desc: Asu-ACR-16 (Ascaris suum (Pig roundworm) (Ascaris lumbricoides), UniProt F1KYJ9)
- Sequence (F1KYJ9 1-504): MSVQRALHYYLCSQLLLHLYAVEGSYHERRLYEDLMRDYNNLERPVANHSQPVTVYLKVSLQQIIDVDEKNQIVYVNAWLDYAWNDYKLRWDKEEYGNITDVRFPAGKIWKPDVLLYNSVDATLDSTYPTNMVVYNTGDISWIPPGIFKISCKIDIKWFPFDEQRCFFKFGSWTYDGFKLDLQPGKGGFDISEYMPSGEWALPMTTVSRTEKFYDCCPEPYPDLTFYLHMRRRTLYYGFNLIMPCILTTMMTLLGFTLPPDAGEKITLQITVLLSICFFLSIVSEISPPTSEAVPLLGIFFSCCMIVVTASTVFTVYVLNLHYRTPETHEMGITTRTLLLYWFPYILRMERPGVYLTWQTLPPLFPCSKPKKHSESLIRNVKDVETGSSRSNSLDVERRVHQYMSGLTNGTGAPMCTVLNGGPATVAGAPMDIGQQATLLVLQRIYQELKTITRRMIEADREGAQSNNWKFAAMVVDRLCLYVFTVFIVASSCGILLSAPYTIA
- assay: cell-based
- Type: cell-based
- study conditions: agonist dose-response; mean±S.E.M., N=5
measured attribute: Hill slope (nH)

> print(dat)
                                   compound  value.observed
1  C[N+]1(C)CCC[C@H]1c1cccnc1.[I-] [(S)-1′-methyl-nicotinium, (S)-1′-methylnicotinium iodide]            3.52
2  CN1CCC[C@H]1c1cncc(Br)c1 [(S)-5-bromo-nicotine, (S)-5-bromonicotine]            2.46
3   c1cncc([C@@H]2CCCCN2)c1 [(S)-anabasine]            2.26
4      CCN1CCCC1c1cccnc1 (centres unmarked)            6.78
5  C#Cc1cncc([C@@H]2CCCCN2)c1 [(S)-5-ethynyl-anabasine]            1.81
6  c1cncc([C@@H]2CCCN2)c1 [nornicotine, (+)-nornicotine]            3.25
7  CC(=O)OCC[N+](C)(C)C.[Cl-] [ACh, acetylcholine chloride]            2.93
8    Cc1cncc(C2CCCN2C)c1 (centres unmarked)            2.09

###

- target desc: Asu-ACR-16 (Ascaris suum (Pig roundworm) (Ascaris lumbricoides))
- assay: cell-based
- Assay type: cell-based
pEC50: −log10 of the molar value. Structures can show the parent of a compound that is named as a salt.
measured attribute: pEC50

> print(dat)
                                   compound  value.observed
1  CN1CCC[C@H]1c1cccnc1 [(S)-nicotine, (−)-nicotine hydrogen tartrate salt]            5.21

###

- target desc: Asu-ACR-16 (Ascaris suum (Pig roundworm) (Ascaris lumbricoides), UniProt F1KYJ9)
- assay: cell-based
- Format: cell-based
- study conditions: agonist; currents normalized to 100 μM ACh; oocytes clamped to −60 mV; mean±S.E.M., N=5
Structures can show the parent of a compound that is named as a salt.
measured attribute: EC50 (nM)

> print(dat)
                                   molecule                               target.desc  value.observed
1  CN1CCC[C@H]1c1cncc(Br)c1 [(S)-5-bromo-nicotine, (S)-5-bromonicotine]  Asu-ACR-16 (Ascaris suum (Pig roundworm) (Ascaris lumbricoides), UniProt F1KYJ9)            2040
2  CN1CCC[C@H]1c1cncc(C=O)c1 [(S)-nicotine-5-carboxaldehyde]  Asu-ACR-16 (Ascaris suum (Pig roundworm) (Ascaris lumbricoides), UniProt F1KYJ9)           11500
3  C#Cc1cncc([C@@H]2CCCN2C)c1 [(S)-SIB 1508Y, SIB 1508Y maleate]  Asu-ACR-16 (Ascaris suum (Pig roundworm) (Ascaris lumbricoides), UniProt F1KYJ9)             370
4  Cc1cncc(C2CCCN2C)c1 (stereo not shown) [5-methyl-nicotine, 5-methylnicotine]  Asu-ACR-16 (Ascaris suum (Pig roundworm) (Ascaris lumbricoides), UniProt F1KYJ9)             990

###

- target desc: Asu-ACR-16 (Ascaris suum (Pig roundworm) (Ascaris lumbricoides), UniProt F1KYJ9)
- assay: cell-based
- Format: cell-based
- study conditions: normalized to peak current of 100 μM ACh; mean±S.E.M., N=5
Structures can show the parent of a compound that is named as a salt.
Lab note: anything with maximum response (Imax) below 80% is marked MET; values at 80% or higher are marked NOT MET.

> print(dat)
                                   compound  class.assignment
1  CN1CCC[C@H]1c1cncc(C=O)c1 [(S)-nicotine-5-carboxaldehyde]               MET
2  C[N+]1(C)CCC[C@H]1c1cccnc1.[I-] [(S)-1′-methyl-nicotinium, (S)-1′-methylnicotinium iodide]           NOT MET
3  CCN1CCCC1c1cccnc1 (stereo not shown) [homonicotine]               MET
4   c1cncc([C@@H]2CCCCN2)c1 [(S)-anabasine]           NOT MET
5  C#Cc1cncc([C@@H]2CCCN2C)c1 [(S)-SIB 1508Y, SIB 1508Y maleate]           NOT MET

###

Listing of entries alongside the reported Emax.
- target desc: UniProt:F1KYJ9
- assay: cell-based
- Format: cell-based
- study conditions: read-out: maximum response (Imax)
Structures can show the parent of a compound that is named as a salt.
measured attribute: Emax (%)

> print(dat)
                                   compound     target.desc  measured.attribute  value.observed
1  c1cncc([C@@H]2CCCN2)c1 [nornicotine, (+)-nornicotine]  UniProt:F1KYJ9                Emax            62.6
2    Cc1ccc(C2CCCN2C)cn1 (stereo not drawn)  UniProt:F1KYJ9                Emax            69.8
3  CN1CCC[C@H]1c1cccnc1 [(S)-nicotine, (−)-nicotine hydrogen tartrate salt]  UniProt:F1KYJ9                Emax            82.4
4  NC(=O)c1ccc(N)nc1 [6-AN, 6-aminonicotinamide]  UniProt:F1KYJ9                Emax            6.29
5    Cc1cncc(C2CCCN2C)c1 (stereo not drawn)  UniProt:F1KYJ9                Emax              76
6  CN1CCC[C@H]1c1cncc(Br)c1 [(S)-5-bromo-nicotine, (S)-5-bromonicotine]  UniProt:F1KYJ9                Emax            69.7

###

- target desc: Asu-ACR-16 (Ascaris suum (Pig roundworm) (Ascaris lumbricoides), UniProt F1KYJ9)
- assay: cell-based
- Format: cell-based
- study conditions: agonist dose-response; mean±S.E.M., N=5
Where a name gives a salt, the structure may show the parent alone.
Lab note: anything with Hill slope (nH) below 4 is marked yes (1); values at 4 or higher are marked no (0).

> print(dat)
                                   compound                               target.desc  class.assignment
1  C#Cc1cncc([C@@H]2CCCN2C)c1 [(S)-SIB 1508Y, SIB 1508Y maleate]  Asu-ACR-16 (Ascaris suum (Pig roundworm) (Ascaris lumbricoides), UniProt F1KYJ9)           yes (1)
2  Brc1cncc([C@@H]2CCCCN2)c1 [(S)-5-bromo-anabasine, (S)-5-bromoanabasine]  Asu-ACR-16 (Ascaris suum (Pig roundworm) (Ascaris lumbricoides), UniProt F1KYJ9)            no (0)
3    Cc1ccc(C2CCCN2C)cn1 (centres unmarked)  Asu-ACR-16 (Ascaris suum (Pig roundworm) (Ascaris lumbricoides), UniProt F1KYJ9)           yes (1)
4  CN1CCC[C@H]1c1cncc(C=O)c1 [(S)-nicotine-5-carboxaldehyde]  Asu-ACR-16 (Ascaris suum (Pig roundworm) (Ascaris lumbricoides), UniProt F1KYJ9)            no (0)
5  NC(=O)c1ccc(N)nc1 [6-AN, 6-aminonicotinamide]  Asu-ACR-16 (Ascaris suum (Pig roundworm) (Ascaris lumbricoides), UniProt F1KYJ9)            no (0)

###

- target desc: Asu-ACR-16 (Ascaris suum (Pig roundworm) (Ascaris lumbricoides), UniProt F1KYJ9)
- assay: Two-electrode voltage clamp inhibition of the ACh response of Asu-ACR-16 expressed in Xenopus laevis oocytes
pIC50: −log10 of the molar value.
measured attribute: pIC50

> print(dat)
                                   compound  measured.attribute  value.observed
1  NC(=O)c1ccc(N)nc1 [6-AN, 6-aminonicotinamide]               pIC50            5.70
